Origin of measurements: ChEMBL document CHEMBL5244247

- Tested on: Leishmania donovani
- PROTOCOL TEXT: Antileishmanial activity against promastigote form of Leishmania donovani
- Format: functional, organism-based
So I've got a bunch of compounds here, and I need their IC50 values.
Quick note: give the figure in µM, leave out the unit.

Tested on Leishmania donovani, the item COc1cc(O[C@@H]2O[C@H](CO)[C@@H](O)[C@H](O)[C@H]2O)c2c(-c3ccc(O)c(O)c3)cc(=O)oc2c1 showed IC50 equal to 28.9

Tested on Leishmania donovani, the item COc1cc(O[C@@H]2O[C@H](COC(C)=O)[C@@H](OC(C)=O)[C@H](OC(C)=O)[C@H]2OC(C)=O)c2c(-c3ccc(OC(C)=O)c(OC(C)=O)c3)cc(=O)oc2c1 showed IC50 equal to 12.4

Tested on Leishmania donovani, the item Cc1cccc2cc(C(c3c(O)c4ccccc4oc3=O)N3CCCCC3)c(Cl)nc12 (stereo not given) showed IC50 equal to 9.9

Tested on Leishmania donovani, the item COc1cc(O[C@@H]2O[C@H](CO)[C@@H](O)[C@H](O)[C@H]2O)c2c(-c3ccc(OC)c(OC)c3)cc(=O)oc2c1 showed IC50 equal to 10.2
